Origin of the recorded values: patent US7781421B2

Listing: Oocyte electrophysiology, ratio of currents in presence/absence of compound, 1 μM of selected compounds
target_desc: rat α1β2γ2 GABAA Receptor (Rattus norvegicus, UniProt P18508+P62813+P63138, INS375LLRMFSFK)
Construct: from linearized pBluescript vectors containing receptor coding regions; expressed in transfected cells; host or cells: Xenopus laevis oocytes injected with in vitro transcribed capped mRNA
Sequence (P62813 28-455, stated change not applied): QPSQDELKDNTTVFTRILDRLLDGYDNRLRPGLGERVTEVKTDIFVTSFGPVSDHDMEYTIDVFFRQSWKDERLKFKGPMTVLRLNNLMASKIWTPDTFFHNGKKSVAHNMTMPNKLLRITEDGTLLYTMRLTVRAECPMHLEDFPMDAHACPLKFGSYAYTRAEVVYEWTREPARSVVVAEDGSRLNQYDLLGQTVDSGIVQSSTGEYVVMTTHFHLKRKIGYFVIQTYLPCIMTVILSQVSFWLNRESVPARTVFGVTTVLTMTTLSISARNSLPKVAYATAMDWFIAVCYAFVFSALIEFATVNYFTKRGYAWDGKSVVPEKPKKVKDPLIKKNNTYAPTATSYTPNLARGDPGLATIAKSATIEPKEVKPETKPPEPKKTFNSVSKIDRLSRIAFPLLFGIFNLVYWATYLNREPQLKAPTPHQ
Sequence (P63138 26-474, stated change not applied): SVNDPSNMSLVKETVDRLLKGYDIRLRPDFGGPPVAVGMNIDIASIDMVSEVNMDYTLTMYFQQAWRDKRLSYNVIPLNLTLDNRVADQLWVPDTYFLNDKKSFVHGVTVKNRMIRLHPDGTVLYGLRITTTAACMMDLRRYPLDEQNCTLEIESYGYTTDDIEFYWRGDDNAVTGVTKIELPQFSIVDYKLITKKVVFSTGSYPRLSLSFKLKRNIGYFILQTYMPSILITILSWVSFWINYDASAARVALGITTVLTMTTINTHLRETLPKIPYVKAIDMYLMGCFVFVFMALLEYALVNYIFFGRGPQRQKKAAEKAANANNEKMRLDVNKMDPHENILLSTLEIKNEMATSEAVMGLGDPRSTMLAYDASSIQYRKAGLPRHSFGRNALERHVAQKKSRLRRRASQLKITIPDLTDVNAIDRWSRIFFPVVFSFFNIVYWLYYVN
Sequence (P18508 with tags, fused parts or gaps INS375LLRMFSFK): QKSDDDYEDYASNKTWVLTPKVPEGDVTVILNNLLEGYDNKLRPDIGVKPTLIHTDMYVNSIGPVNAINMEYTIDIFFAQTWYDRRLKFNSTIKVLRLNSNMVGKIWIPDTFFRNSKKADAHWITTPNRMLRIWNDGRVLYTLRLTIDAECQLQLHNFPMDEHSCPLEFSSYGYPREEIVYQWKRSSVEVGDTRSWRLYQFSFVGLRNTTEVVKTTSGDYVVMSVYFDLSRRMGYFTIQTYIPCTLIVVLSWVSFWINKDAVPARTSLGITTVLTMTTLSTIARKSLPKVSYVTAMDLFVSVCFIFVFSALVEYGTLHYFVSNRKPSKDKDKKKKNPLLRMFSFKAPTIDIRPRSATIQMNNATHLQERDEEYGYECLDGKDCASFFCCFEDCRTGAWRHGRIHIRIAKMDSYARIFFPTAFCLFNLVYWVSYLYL
assay_info: Xenopus oocyte two-electrode voltage-clamp electrophysiology
Assay type: cell-based
setup_conditions: 1 μM compound co-applied with 2 μM GABA; −70 mV
measured_endpoint: Oocyte electrophysiology, ratio of currents in presence/absence of compound, 1 μM

{"columns": ["compound", "number"],
 "data": [
  ["CC12CCC(O)CC1CCC1C2CCC23C=C(Br)C(=O)C2CCC13 (stereo not drawn)", 1.99],
  ["CC12CCC(O)CC1CCC1C2CCC23CCC(=O)C2CCC13 (stereo not drawn)", 1.02],
  ["CC12CCC(O)CC1CCC1C2CCC23CC(=O)C=CC2CCC13 (stereo not drawn) [Compound 21c]", 5.53],
  ["C[C@]12CC[C@@H](O)C[C@@H]1CCC1C3CC[C@@H]4C(=O)CCC[C@]34CCC12 (stereo partly drawn)", 1.44],
  ["C[C@]12CC[C@@H](O)C[C@@H]1CCC1C3CC[C@@H]4/C(=C/C#N)CCC[C@]34CCC12 (stereo partly drawn)", 12.34],
  ["CC12CCC(O)CC1CCC1C2CCC23C=CC(=O)CC2CCC13 (stereo not drawn) [Compound 30b]", 1.80],
  ["C[C@]12CC[C@@H](O)C[C@H]1CCC1C3CCC4CCC(=O)C[C@@]43CCC12 (stereo partly drawn)", 1.03],
  ["CC12CCC(O)CC1CCC1C2CCC23CCC(=CC#N)C2CCC13 (stereo not drawn) [Compound 97]", 0.87],
  ["CC(=O)C1=CCCC23CCC4C(CCC5CC(O)CCC54C)C2CCC13 (stereo not drawn)", 0.86]
]}

====

target_desc: rat α1β2γ2 GABAA Receptor (Rattus norvegicus, UniProt P18508+P62813+P63138, INS375LLRMFSFK)
Construct: from linearized pBluescript vectors containing receptor coding regions; expressed in transfected cells; host or cells: Xenopus laevis oocytes injected with in vitro transcribed capped mRNA
assay_info: Xenopus oocyte two-electrode voltage-clamp electrophysiology
Type: cell-based
setup_conditions: 10 μM compound co-applied with 2 μM GABA; −70 mV
# Oocyte electrophysiology, ratio of currents in presence/absence of compound, 10 μM >= 5 gives Met, anything below gives Not met

{"columns": ["molecule", "class"],
 "data": [
  ["CC12CCC(O)CC1CCC1C2CCC23C(=O)C=CCC2CCC13 (centres unmarked) [Compound 35a]", "Met"],
  ["CC12CCC(O)CC1CCC1C2CCC23CCCC(O)C2CCC13 (centres unmarked) [Compound 68]", "Not met"],
  ["CC12CCC(O)CC1CCC1C2CCC23CCC(=O)C2CCC13 (centres unmarked)", "Not met"],
  ["C[C@]12CC[C@@H](O)C[C@@H]1CCC1C3CC[C@@H]4CCC=C[C@]34CCC12 (some centres unmarked)", "Not met"],
  ["CC12CCC(O)CC1CCC1C2CCC23C(=O)CCCC2CCC13 (centres unmarked) [Compound 5a]", "Met"],
  ["COC1CCCC23CCC4C(CCC5CC(O)CCC54C)C2CCC13 (centres unmarked) [Compound 70]", "Not met"],
  ["C=C1CC[C@]23CCC4C(CC[C@H]5C[C@H](O)CC[C@]45C)C2CC[C@@H]3C1 (some centres unmarked)", "Not met"],
  ["C[C@]12CC[C@@H](O)C[C@@H]1CCC1C3CC[C@@H]4[C@H](C#N)CCC[C@]34CCC12 (some centres unmarked)", "Not met"],
  ["CC12CCC(O)CC1CCC1C2CCC23CCCC(=CC#N)C2CCC13 (centres unmarked)", "Not met"],
  ["C[C@]12CC[C@@H](O)C[C@@H]1CCC1C3CC[C@@H]4[C@@H]5O[C@@H]5CC[C@]34CCC12 (some centres unmarked)", "Met"],
  ["C[C@]12CC[C@@H](O)C[C@@H]1CCC1C3CC[C@@H]4C[C@@H](C#N)CC[C@]34CCC12 (some centres unmarked)", "Not met"],
  ["C[C@]12CC[C@@H](O)C[C@H]1CCC1C3CC[C@@H]4C(=O)CCC[C@]34CCC12 (some centres unmarked)", "Not met"],
  ["C[C@]12CC[C@@H](O)C[C@@H]1CCC1C3CC[C@@H]4[C@@]5(CCC[C@]34CCC12)CO5 (some centres unmarked)", "Not met"],
  ["C=C1CCC[C@]23CCC4C(CC[C@H]5C[C@H](O)CC[C@]45C)C2CC[C@H]13 (some centres unmarked)", "Not met"],
  ["CC12CCC(O)CC1CCC1C2CCC23CCCC(O)C2CCC13 (centres unmarked) [Compound 67]", "Not met"],
  ["C[C@]12CC[C@@H](O)C[C@@H]1CCC1C3CC[C@@H]4/C(=C/C#N)CCC[C@]34CCC12 (some centres unmarked)", "Met"],
  ["CC12CCC(O)CC1CCC1C2CCC23C=CC(=O)C2CCC13 (centres unmarked)", "Not met"]
]}

====

Examples of compounds with documented Gating (10 μM), ratio of compound only current/2 μM GABA current follow.
target_desc: rat α1β2γ2 GABAA Receptor (Rattus norvegicus, UniProt P18508+P62813+P63138, INS375LLRMFSFK)
Construct: from linearized pBluescript vectors containing receptor coding regions; expressed in transfected cells; host or cells: Xenopus laevis oocytes injected with in vitro transcribed capped mRNA
assay_info: Xenopus oocyte two-electrode voltage-clamp electrophysiology
Assay type: cell-based
setup_conditions: direct current gated by 10 μM compound in the absence of GABA
measured_endpoint: Gating (10 μM), ratio of compound only current/2 μM GABA current

{"columns": ["compound", "result"],
 "data": [
  ["C=C1CCC[C@]23CCC4C(CC[C@H]5C[C@H](O)CC[C@]45C)C2CC[C@H]13 (some centres unmarked) [Compound 51]", "−0.06 ± 0.06"],
  ["CC12CCC(O)CC1CCC1C2CCC23C(=O)C=CCC2CCC13 (centres unmarked) [Compound 35b]", "0.20 ± 0.19"],
  ["CC12CCC(O)CC1CCC1C2CCC23CC=CC(=O)C2CCC13 (centres unmarked) [Compound 11a]", "0.72 ± 0.03"],
  ["CC12CCC(O)CC1CCC1C2CCC23CCC(=O)CC2CCC13 (centres unmarked) [Compound 3b]", "−0.10 ± 0.06"],
  ["C[C@]12CC[C@@H](O)C[C@H]1CCC1C3CC[C@@H]4C(=O)CCC[C@]34CCC12 (some centres unmarked) [Compound 2b]", "−0.25 ± 0.21"]
]}

====

{"columns": ["compound", "melting point"],
 "data": [
  ["C[C@]12CC[C@@H](O)C[C@@H]1CCC1C3CC[C@@H]4C[C@H](C#N)CC[C@]34CCC12 (some centres unmarked) [Compound 45]", "244 to 246 °C"],
  ["CC12CCC(O)CC1CCC1C2CCC23CCC(=CC#N)C2CCC13 (centres unmarked) [Compound 96]", "201 to 202.5 °C"],
  ["C=C1CCC[C@]23CCC4C(CC[C@H]5C[C@H](O)CC[C@]45C)C2CC[C@H]13 (some centres unmarked) [Compound 51]", "211 to 213 °C"],
  ["CC12CCC(O)CC1CCC1C2CCC23CCC(=CC#N)C2CCC13 (centres unmarked) [Compound 97]", "226 to 228 °C"],
  ["C[C@]12CC[C@@H](O)C[C@@H]1CCC1C3CC[C@@H]4CC[C@H](C#N)C[C@]34CCC12 (some centres unmarked) [Compound 50]", "157 to 159 °C"],
  ["C[C@]12CC[C@@H](O)C[C@@H]1CCC1C3CC[C@@H]4C[C@@H](C#N)CC[C@]34CCC12 (some centres unmarked) [Compound 44]", "199 to 200 °C"],
  ["CC12CCC(O)CC1CCC1C2CCC23C(=O)CCCC2CCC13 (centres unmarked) [Compound 5a]", "203 to 204 °C"],
  ["CC12CCC(O)CC1CCC1C2CCC23CCCC(=CC#N)C2CCC13 (centres unmarked) [Compound 64]", "201.5 to 203 °C"]
]}

====

Test system: Xenopus laevis tadpoles
assay_info: Tadpole loss of righting (LRR) and swimming (LSR) reflexes
Format: in vivo
setup_conditions: 3 h equilibration at room temperature

{"columns": ["molecule", "LRR ED50 (loss of righting response), nM"],
 "data": [
  ["C[C@]12CC[C@@H](O)C[C@@H]1CCC1C3CC[C@@H]4[C@@H]5O[C@@H]5CC[C@]34CCC12 (some centres unmarked)", 19300],
  ["CC12CCC(O)CC1CCC1C2CCC23CC=CC(=O)C2CCC13 (centres unmarked) [Compound 11a]", 3380],
  ["C[C@]12CC[C@@H](O)C[C@H]1CCC1C3CCC4CCC(=O)C[C@@]43CCC12 (some centres unmarked)", 1440],
  ["C[C@]12CC[C@@H](O)C[C@@H]1CCC1C3CCC4CCC(=O)C[C@@]43CCC12 (some centres unmarked)", 1120],
  ["CC12CCC(O)CC1CCC1C2CCC23CCC(=O)C2CCC13 (centres unmarked)", 2630]
]}
